Each recorded value in this set is attributed to PubChem BioAssay (NCI).

GI50 values for the compounds below.
system: HS 578T breast; test: NCI tumour cell line growth inhibition, 48 h

[
  {
    "COMPOUND": "C[C@H]1CCC/C=C/[C@@H]2C[C@H](O)C[C@H]2[C@H](O)[C@@H](S(=O)CCN)CC(=O)O1 (some centres undefined)",
    "TARGET": "HS 578T breast",
    "GI50": "207 nM"
  },
  {
    "COMPOUND": "CCN(CC)CCCCCOc1cc(O)c2c(=O)cc(-c3ccccc3)oc2c1",
    "TARGET": "HS 578T breast",
    "GI50": "15600 nM"
  },
  {
    "COMPOUND": "Oc1ccc(Br)cc1/C=N/NC(=S)NC12CC3CC(CC(C3)C1)C2",
    "TARGET": "HS 578T breast",
    "GI50": "1990 nM"
  },
  {
    "COMPOUND": "Cc1[nH]nc2c1N=C(c1ccccc1F)c1cc(C#N)ccc1N2",
    "TARGET": "HS 578T breast",
    "GI50": "122 nM"
  },
  {
    "COMPOUND": "COc1ccc2c(c1OC)-c1c(c3ccc([N+](=O)[O-])cc3c(=O)n1CCCN=[N+]=[N-])C2=O",
    "TARGET": "HS 578T breast",
    "GI50": "> 100000 nM"
  },
  {
    "COMPOUND": "CC1CCC2C(C)C3C(CC4C5CC=C6CC(OC7OC(CO)C(O)C(OC8OC(CO)C(O)C(O)C8O)C7OC7OC(C)C(O)C(O)C7O)CCC6(C)C5CCC43C)N2C1 (centres undefined)",
    "TARGET": "HS 578T breast",
    "GI50": "> 2.5 µg/mL"
  },
  {
    "COMPOUND": "COc1cccc2c1cc([N+](=O)[O-])c1c(C(=O)O)cc3c(c12)OCO3",
    "TARGET": "HS 578T breast",
    "GI50": "36300 nM"
  },
  {
    "COMPOUND": "COc1ccc(OC)c(-c2cc(-c3ccccc3)nn2-c2ccc(S(N)(=O)=O)cc2)c1",
    "TARGET": "HS 578T breast",
    "GI50": "18900 nM"
  },
  {
    "COMPOUND": "CN1CCN(Cc2ccc(NC(=O)c3[nH]ncc3Nc3ncnc4sccc34)cc2)CC1",
    "TARGET": "HS 578T breast",
    "GI50": "60.4 nM"
  }
]
